Quick reference for protein stability index among some variants
B1: CLPTM1 (parent)
chain: MNLHVYISEHEHFTDFNATSALFW

# Variants of: B1
# protocol_notes: protein stability index of a GFP-peptide fusion (GPS, HEK-293T) (PSI 1-6); higher = more stable;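 also: lentivirally expressed fusions sorted by FACS into six bins by GFP to DsRed ratio, PSI derived from sequencing read proportions per bin multiplied by bin number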
# settings: c terminus: a fixed tail appended

Known results for variants:
>  <sequence_code>
MSLHVYISEHEHFTDFNATSALFW [N2S]

>  <protein stability index>
4.89

$$$$
>  <sequence_code>
MNLHVYLSEHEHFTDFNATSALFW [I7L]

>  <protein stability index>
2.45

$$$$
>  <sequence_code>
MNLHVYISEHEHFIDFNATSALFW [T14I]

>  <protein stability index>
2.23

$$$$

Q) Tell me protein stability index reported for MNLHVYISEHEHFTDFNATSKLFW [A21K]
A) 3.78

Q) Assign protein stability index to the following record: MNLLVYISEHEHFTDFNATSALFW [H4L]
A) 2.97

Q) Tell me measured protein stability index for MNLHVYISEHEHFTDFNATSILFW [A21I] please.
A) 2.59

Q) Give me measured protein stability index, please, for this variant: MNLHVYVSEHEHFTDFNATSALFW [I7V]
A) 3.33

Q) Provide measured protein stability index value, entry: MNLHVYISQHEHFTDFNATSALFW [E9Q]
A) 2.96

Q) Determine its reported protein stability index: MNLHVYISHHEHFTDFNATSALFW [E9H]
A) 4.25

Q) Give the reported protein stability index for this variant. MNLHVYHSEHEHFTDFNATSALFW [I7H]
A) 1.79
